# Substrate: C[N+](C)(C)CCOP(=O)(O)OP(=O)([O-])OC[C@H]1O[C@@H](n2ccc(N)nc2=O)[C@H](O)[C@@H]1O
# Measurement Notes: colorimetric Pi assay coupled to alkaline phosphatase, saturation kinetics
# Format: biochemical, Homo sapiens
# Measurement Setup: 5 mM MnCl2, pH 7.5, 37°C
Assay Metric: Km (µM)
One number for each entry, in µM.

Lookup: # Km lookup, item human ADPRibase-Mn (Homo sapiens) (protein, full length, 342 aa; expressed as GST fusion (pGEX-6P-3), GST cut off with PreScission protease, 11-aa N-terminal extension …) MDDKPNPEALSDSSERLFSFGVIADVQFADLEDGFNFQGTRRRYYRHSLLHLQGAIEDWNNESSMPCCVLQLGDIIDGYNAQYNASKKSLELVMDMFKRLKVPVHHTWGNHEFYNFSREYLTHSKLNTKFLEDQIVHHPETMPSEDYYAYHFVPFPKFRFILLDAYDLSVLGVDQSSPKYEQCMKILREHNPNTELNSPQGLSEPQFVQFNGGFSQEQLNWLNEVLTFSDTNQEKVVIVSHLPIYPDASDNVCLAWNYRDALAVIWSHECVVCFFAGHTHDGGYSEDPFGVYHVNLEGVIETAPDSQAFGTVHVYPDKMMLKGRGRVPDRIMNYKKERAFHC
Found: 350
